Kindly state Inhibition zone for each of the entries shown.
System: M. hemolytica KB345 (Tilmicosin-sensitivity strain)
Assay: Paper disc assay, M. hemolytica KB345
Assay type: cell-based, Mannhemia hemolytica
Conditions: 3 mg/6 mm disk; Table 4
Express your answer in mm, writing the number without its unit.

Item CCC1OC(=O)CC(O)C(C)C(OC2OC(C)C(O)C(N(C)C)C2O)C(CCn2cc(-c3ccccc3)nn2)CC(C)C(=O)C=CC(C)=CC1CN=[N+]=[N-] (stereo not shown) has what recorded Inhibition zone? 11.5

Item CCC1OC(=O)CC(O)C(C)C(OC2OC(C)C(O)C(N(C)C)C2O)C(CCn2cc(-c3ccccc3)nn2)CC(C)C(=O)C=CC(C)=CC1CO (stereo not shown) has what recorded Inhibition zone? 17.0

Item CCC1OC(=O)CC(O)C(C)C(OC2OC(C)C(O)C(N(C)C)C2O)C(CC=O)CC(C)C(=O)C=CC(C)=CC1CN=[N+]=[N-] (stereo not shown) has what recorded Inhibition zone? 12.0

Item CCC1OC(=O)CC(O)C(C)C(OC2OC(C)C(O)C(N(C)C)C2O)C(CC=O)CC(C)C(=O)C=CC(C)=CC1CI (stereo not shown) has what recorded Inhibition zone? 11.5
